- TEST_TARGET: T1, CRBN, Q96SW2;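 note: pooled lentiviral library of zinc finger degron-EGFP fusions in mCherry-positive Jurkat cells, FACS-sorted after compound exposure, with degron abundance counted by next-generation sequencing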
- T1 chain: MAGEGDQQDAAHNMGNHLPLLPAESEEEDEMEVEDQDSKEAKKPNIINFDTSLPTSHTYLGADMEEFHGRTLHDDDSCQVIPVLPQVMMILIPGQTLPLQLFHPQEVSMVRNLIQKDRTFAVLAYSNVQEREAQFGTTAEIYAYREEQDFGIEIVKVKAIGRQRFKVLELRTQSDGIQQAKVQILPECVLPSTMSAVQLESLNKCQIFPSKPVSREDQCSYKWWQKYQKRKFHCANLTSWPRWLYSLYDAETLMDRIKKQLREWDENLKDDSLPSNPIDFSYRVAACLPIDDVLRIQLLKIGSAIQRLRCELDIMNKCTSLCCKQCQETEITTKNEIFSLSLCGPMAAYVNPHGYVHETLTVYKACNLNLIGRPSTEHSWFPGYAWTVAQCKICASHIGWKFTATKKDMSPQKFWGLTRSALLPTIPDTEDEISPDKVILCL
- PROTOCOL_DETAILS: log2 fold change of degron read counts, EGFP-low vs EGFP+ sorted cells (limma voom), compound-induced degradation; higher = more compound-induced degradation of the degron-EGFP fusion; degrons are variants of IKZF1/3 zinc finger 2; compound dose not given here
- PARTICULARS: Jurkat; 18 h; compound: compound 19 (5-tert-butyl-thalidomide)
Over roughly 8,300 sequences, “log2 fold change of degron read counts, EGFP-low vs EGFP+ sorted cells (limma voom), compound-induced degradation” has its median near -1.1; the highest 2% begin near 3.2. For the sample, the highest values were picked, then their nearest neighbours and some sequences at random.
Each entry gets Criterion not met if its log2 fold change of degron read counts stays under -3, and Criterion met if its log2 fold change of degron read counts is -3 or above.

Consider the following illustrative entries.
Check this sequence for log2 fold change of degron read counts at or above -3: FSCNICGAEFTQKGNLLRHIKL [46F_47S_49N_50I_52G_53A_54E_55F_67L_, Q9UKT9]
Criterion met

Textbook exercise: given the entry LICNQCGFDCTQKGNLLRHIKL [46L_47I_49N_50Q_52G_53F_54D_55C_67L_, Q9UKT9] , state whether its log2 fold change of degron read counts is greater than or equal to -3.
Criterion not met

Check the entry FECNQCGAYFTQKGNLLRHIKL [46F_47E_49N_50Q_52G_53A_54Y_55F_67L_, Q9UKT9] : does log2 fold change of degron read counts equal or exceed -3?
Criterion met

Confirm if log2 fold change of degron read counts reported for the sequence FQCNQCGHNFTQKGNLLRHIKL [46F_47Q_49N_50Q_52G_53H_54N_55F_67L_, Q9UKT9] is -3 or above.
Criterion met

# bool: log2 fold change of degron read counts of FVCEICGHWFTQKGNLLRHIKL [46F_47V_49E_50I_52G_53H_54W_55F_67L_, Q9UKT9] >= -3
Criterion not met

Others:
Reported log2 fold change of degron read counts reaches at least -3 for FWCPICGRHFTQKGNLLRHIKL [46F_47W_49P_50I_52G_53R_54H_55F_67L_, Q9UKT9] ?
Criterion met

Textbook exercise: given the entry FICPICGHQFTQKGNLLRHIKL [46F_47I_49P_50I_52G_53H_54Q_55F_67L_, Q9UKT9] , state whether its log2 fold change of degron read counts is greater than or equal to -3.
Criterion met

All values here come from the supplement of paper PMC12645437.
